Target: T1, SNAP25 Peptide 3 (PEP3; only a fragment of it is a SNAP25 subsequence) (Homo sapiens, UniProt P60880 SEQ:1-33)
T1 chain: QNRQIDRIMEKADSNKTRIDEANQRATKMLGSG
Assay: ELONA
OBSERVED PROPERTY: binding signal (ELISA signal)

{"columns": ["BINDER", "READOUT UNIT", "OBS VALUE"],
 "data": [
  ["PEP 3.19 (ssDNA, W indole, X amine, Y phenol modified dU [19, 46 (phenol dU), 27, 43 (amine dU)]) DNA: TTTTTAAGCCCACGCCACTGTGACCATCGAACCACACGGCCGTCGTGCCATG", "ELISA signal", 102],
  ["PEP 3.11 (ssDNA, W indole, X amine, Y phenol modified dU [14X,16W,19W,20Y,40W,43X,46Y]) DNA: TTTTTAAGCCCACTGTCGTTCGGCGGGCGAACGACAGCATGGTCGTGCCATG", "ELISA signal", 137],
  ["PEP 3.20 (ssDNA, W indole, X amine, Y phenol modified dU [16, 17, 23, 24 (indole dU), 19 (phenol dU), 27 (amine dU)]) DNA: TTTTTAAGCCCACAGTTCTGTGTTCATCACAGAGCAACACTGTGGGCCCATG", "ELISA signal", 97],
  ["PEP 3.23 (ssDNA, W indole, X amine, Y phenol modified dU [15, 19, 34 (phenol dU), 27 (amine dU)]) DNA: TTTTTAAGCCCACCTCACTGTGCAAGTCACAGGTCGGCACCGTGGGCCCATG", "ELISA signal", 95],
  ["PEP 3.05 (ssDNA, W indole, X amine, Y phenol modified dU [19Y,23W,24W,38W]) DNA: TTTTTAACACGACGACACTGTGTTGGGCGAACTCCGCTGGGGTGGGCCCATG", "ELISA signal", 272],
  ["PEP 3.21 (ssDNA, W indole, X amine, Y phenol modified dU [14, 27, 43 (amine dU), 19, 23, 38, 40 (indole dU), 20, 46 (phenol dU)]) DNA: TTTTTAAGCCCACTCCGGTTCGTCCATCACAGCCCACTGTGGTCGTGCCATG", "ELISA signal", 96]
]}
